# Target Entity: human thrombin (Homo sapiens, UniProt P00734)
# Test Method Notes: Determination of the inhibition constants for thrombin
# Experimental Conditions: human thrombin 100 pM, 0.1 mM substrate S2238, pH 7.8, 37 degrees C., 10 min preincubation
Property Measured: Ki (nM)

Here's what some known entries look like.
COc1cc(C)c(S(=O)(=O)N[C@@H](CC(=O)NCCCC(=O)O)C(=O)N[C@H](Cc2ccc(C(=N)N)cc2)C(=O)N2CCCCC2)c(C)c1C	0.8
N=C(N)c1ccc(C[C@H](NC(=O)[C@H](CC(N)=O)NS(=O)(=O)c2ccc3ccccc3c2)C(=O)N2CCCCC2)cc1	6

[a] COc1cc2ccc(S(=O)(=O)N[C@@H](CC(=O)O)C(=O)N[C@H](Cc3ccc(C(=N)N)cc3)C(=O)N3CCCCC3)cc2cc1OC
[b] COc1cc(C)c(S(=O)(=O)NC(CC(=O)OC(C)(C)C)C(=O)NC(Cc2ccc(C(=N)N)cc2)C(=O)N2CCCCC2)c(C)c1C (stereo not shown)
[c] COc1cc(C)c(S(=O)(=O)N[C@@H](CC(=O)OC(C)C)C(=O)N[C@H](Cc2ccc(C(=N)N)cc2)C(=O)N2CCCCC2)c(C)c1C
[d] COc1cc(C)c(S(=O)(=O)N[C@@H](CC(=O)O)C(=O)N[C@H](Cc2ccc(C(=N)N)cc2)C(=O)N2CCCCC2)c(C)c1C
[e] COc1cc(C)c(S(=O)(=O)N[C@@H](CC(=O)N[C@@H]2O[C@H](C(=O)O)[C@@H](O)[C@H](O)[C@H]2O)C(=O)N[C@H](Cc2ccc(C(=N)N)cc2)C(=O)N2CCCCC2)c(C)c1C
Ask | Ordering: ascending Ki. Please respond by ranking the labels in the order requested.
Reply | e, c, b, d, a
(e: 0.085 nM, c: 0.6 nM, b: 0.9 nM, d: 1.5 nM, a: 6 nM)
